# pEC50 listing for each entry below
- assay.system: S1P1 (Homo sapiens, UniProt P21453)
- Construct: expressed in transfected cells; host or cells: CHO cells (membranes)
- Sequence (P21453 whole entry, species assumed): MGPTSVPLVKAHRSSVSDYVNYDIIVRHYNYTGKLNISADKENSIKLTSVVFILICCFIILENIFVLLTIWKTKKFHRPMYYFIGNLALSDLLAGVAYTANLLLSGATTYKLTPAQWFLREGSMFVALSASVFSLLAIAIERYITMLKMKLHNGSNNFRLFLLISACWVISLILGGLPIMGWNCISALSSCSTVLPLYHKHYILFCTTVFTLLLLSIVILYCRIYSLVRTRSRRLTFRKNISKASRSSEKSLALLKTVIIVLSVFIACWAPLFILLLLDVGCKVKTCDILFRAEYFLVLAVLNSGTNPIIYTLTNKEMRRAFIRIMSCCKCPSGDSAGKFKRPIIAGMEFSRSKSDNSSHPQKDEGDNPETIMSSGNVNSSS
- assay.comment: 35S-GTPγS binding, S1P1 membranes
- Type: biochemical
- condition: membranes from CHO cells expressing S1P1; 60 min 30° C.
For clarity, pEC50 is expressed as the negative log10 of concentration in mol/L.

The compound Cc1ccccc1-c1ccc(-c2nc(-c3ccc(C(=O)O)c(F)c3)no2)cc1C [Example 4] on S1P1 (Homo sapiens, UniProt P21453): pEC50 was 6.50

The compound COCc1cc(-c2nc(-c3ccc(C(=O)NCCc4nnn[nH]4)c(F)c3)no2)ccc1-c1ccccc1C [Example 177] on S1P1 (Homo sapiens, UniProt P21453): pEC50 was 8.89

Source: patent US8202865B2
